This collection of values is drawn from paper PMC8067754.

- Assay Text: Cell viability (MTT assay) of HepaRG cells with and without transporter inhibitors
- Format: cell-based, human
- Setup Conditions: human, HepaRG cells, 1 µM; mean of 6 replicates; no inhibitor; read-out: viability, MW [%]
Property Measured: viability at 24 h, 1 µM (%)

> print(dat)
                  compound.structure.string        property.measured  measured.result
1  C/C=C1/C[C@@H](C)[C@@](C)(O)C(=O)OCC2=CCN3CC[C@@H](OC1=O)[C@@H]23  viability at 24 h, 1 µM              100

###

- Assay Text: Cell viability (MTT assay) of HepaRG cells with and without transporter inhibitors
- Type: cell-based, human
- Setup Conditions: human, HepaRG cells, with Qu 100 µM, HepaRG, 250 µM PA + Qu (100 µM, 1 h pre-incubation), 24 h; read-out: Cell viability (MTT), percent of solvent control, Mean [%]
- Method: In the case of TEA, cells were pre-incubated 24 h prior to PA treatment. The inhibitors were applied anew at PA incubation. To analyze the cytotoxic effects of PAs on HepaRG cells with non-inhibited and inhibited hepatic transporters, the cells were seeded at a density of 9000 cells per well in the inner 60 wells of a 96-well plate and cultivated as described in Section 4.2. […] Cell viability was analyzed via the MTT test. […]
Property Measured: viability at 24 h, 250 µM (%)

> print(dat)
                  compound.structure.string          property.measured  measured.result
1  C/C=C1/C[C@@H](C)[C@@](C)(O)C(=O)OCC2=CCN3CC[C@@H](OC1=O)[C@@H]23  viability at 24 h, 250 µM               90

###

- Assay Text: Cell viability (MTT assay) of HepaRG cells with and without transporter inhibitors
- Type: cell-based, human
- Setup Conditions: human, HepaRG cells, with TEA 3 mM, HepaRG, 250 µM PA + TEA (3 mM, 24 h pre-incubation), 24 h; read-out: Cell viability (MTT), percent of solvent control, Mean [%]
- Protocol: In the case of TEA, cells were pre-incubated 24 h prior to PA treatment. The inhibitors were applied anew at PA incubation. To analyze the cytotoxic effects of PAs on HepaRG cells with non-inhibited and inhibited hepatic transporters, the cells were seeded at a density of 9000 cells per well in the inner 60 wells of a 96-well plate and cultivated as described in Section 4.2. […] Cell viability was analyzed via the MTT test. […]
Property Measured: viability at 24 h, 250 µM (%)

> print(dat)
                  compound.structure.string  measured.result
1  C/C=C1/C[C@@H](C)[C@@](C)(O)C(=O)OCC2=CCN3CC[C@@H](OC1=O)[C@@H]23               69

###

Reported PA in medium, Mean [%] values are given for each entry in this list.
- Tested on: HepaRG cells
- Assay Text: Time-dependent PA depletion and PANO formation in cell culture medium of HepaRG cells at 37 °C and 4 °C (LC-MS/MS)
- Setup Conditions: cold, 8h
Property Measured: PA in medium, Mean [%]

> print(dat)
                  compound.structure.string  measured.result
1  C/C=C1/C[C@@H](C)[C@@](C)(O)C(=O)OC/C2=C/CN(C)CC[C@@H](OC1=O)C2=O         99.7692%
2  C/C=C(/C)C(=O)O[C@H]1CCN2CC=C(COC(=O)[C@@](O)([C@@H](C)O)C(C)(C)O)[C@H]12         98.6729%
3  C/C=C(/C)C(=O)O[C@@H]1CCN2CC=C(COC(=O)[C@@](O)([C@H](C)O)C(C)(C)O)[C@H]12         94.8515%
4  CC(C)[C@](O)(C(=O)OCC1=CCN2CC[C@@H](O)[C@@H]12)[C@@H](C)O           96.74%

###

- Assay Text: Cell viability (MTT assay) of HepaRG cells with and without transporter inhibitors
- Type: cell-based, human
- Setup Conditions: human, HepaRG cells, HepaRG, no PA, inhibitor alone 24 h: CsA 10 µM, Ko143 5 µM, MK571 50 µM, Qu 100 µM, TEA 3 mM; read-out: Cell viability (MTT), percent of solvent control, Mean [%]
Property Measured: viability at 24 h (%)

> print(dat)
                                   molecule  property.measured  measured.result
1  CC[N+](CC)(CC)CC [TEA, tetraethylammonium bromide]  viability at 24 h             84.5
2  C=C[C@H]1C[N@@]2CC[C@H]1C[C@@H]2[C@@H](O)c1ccnc2ccc(OC)cc12 [Qu, quinidine]  viability at 24 h             87.2
3  CN(C)C(=O)CCSC(SCCC(=O)O)c1cccc(/C=C/c2ccc3ccc(Cl)cc3n2)c1 (stereo not drawn) [MK-571, reference compound]  viability at 24 h              106

###

- Assay Text: Cell viability (MTT assay) of HepaRG cells with and without transporter inhibitors
- Type: cell-based, human
- Setup Conditions: human, HepaRG cells, with 50 µM MK-571, HepaRG, 250 µM PA + MK571 (50 µM, 1 h pre-incubation), 24 h; read-out: Cell viability (MTT), percent of solvent control, Mean [%]
Property Measured: viability at 24 h, 250 µM

> print(dat)
                                   compound  measured.result
1  C/C=C1/C[C@@H](C)[C@@](C)(O)C(=O)OCC2=CCN3CC[C@@H](OC1=O)[C@@H]23 [Senecionine, senecionine]            59.1%

###

- Assay Text: Cell viability (MTT assay) of HepaRG cells with and without transporter inhibitors
- Format: cell-based, human
- Setup Conditions: human, HepaRG cells, 50 µM; mean of 6 replicates; no inhibitor; read-out: viability, MW [%]
Property Measured: viability at 24 h, 50 µM

> print(dat)
                  compound.structure.string  measured.result
1  C/C=C1/C[C@@H](C)[C@@](C)(O)C(=O)OCC2=CCN3CC[C@@H](OC1=O)[C@@H]23              65%

###

- System: HepaRG cells
- Assay Text: Time-dependent PA depletion and PANO formation in cell culture medium of HepaRG cells at 37 °C and 4 °C (LC-MS/MS)
- Setup Conditions: warm, 4h
Property Measured: PA in medium, Mean [%] (%)

> print(dat)
                  compound.structure.string  value.unit  measured.result
1  C/C=C(/C)C(=O)O[C@H]1CCN2CC=C(COC(=O)[C@@](O)([C@@H](C)O)C(C)(C)O)[C@H]12           %          41.9165
2  CC(C)[C@](O)(C(=O)OCC1=CCN2CC[C@@H](O)[C@@H]12)[C@@H](C)O           %          95.7481
3  C/C=C1/C[C@@H](C)[C@@](C)(O)C(=O)OC/C2=C/CN(C)CC[C@@H](OC1=O)C2=O           %          92.4068
4  C/C=C(/C)C(=O)O[C@@H]1CCN2CC=C(COC(=O)[C@@](O)([C@H](C)O)C(C)(C)O)[C@H]12           %          64.0995

###

- System: HepaRG cells
- Assay Text: Time-dependent PA depletion and PANO formation in cell culture medium of HepaRG cells at 37 °C and 4 °C (LC-MS/MS)
- Setup Conditions: warm, 8h
Reported PA in medium, Mean [%] values are given for each entry in this list.
Property Measured: PA in medium, Mean [%]

> print(dat)
                  compound.structure.string  measured.result
1  C/C=C(/C)C(=O)O[C@H]1CCN2CC=C(COC(=O)[C@@](O)([C@@H](C)O)C(C)(C)O)[C@H]12          15.145%
2  C/C=C1/C[C@@H](C)[C@@](C)(O)C(=O)OC/C2=C/CN(C)CC[C@@H](OC1=O)C2=O         78.7411%
3  C/C=C(/C)C(=O)O[C@@H]1CCN2CC=C(COC(=O)[C@@](O)([C@H](C)O)C(C)(C)O)[C@H]12         36.9411%
4  CC(C)[C@](O)(C(=O)OCC1=CCN2CC[C@@H](O)[C@@H]12)[C@@H](C)O         94.2429%

###

- Assay Text: Cell viability (MTT assay) of HepaRG cells with and without transporter inhibitors
- Format: cell-based, human
- Setup Conditions: human, HepaRG cells, 1 µM; repl. 1-6; read-out: viability [%], single replicates
- Description: In the case of TEA, cells were pre-incubated 24 h prior to PA treatment. The inhibitors were applied anew at PA incubation. To analyze the cytotoxic effects of PAs on HepaRG cells with non-inhibited and inhibited hepatic transporters, the cells were seeded at a density of 9000 cells per well in the inner 60 wells of a 96-well plate and cultivated as described in Section 4.2. […] Cell viability was analyzed via the MTT test. […]
Property Measured: viability at 24 h, 1 µM (%)

> print(dat)
                  compound.structure.string        property.measured  value.unit  measured.result
1  C/C=C1/C[C@@H](C)[C@@](C)(O)C(=O)OCC2=CCN3CC[C@@H](OC1=O)[C@@H]23  viability at 24 h, 1 µM           %             95.1
